- EXPERIMENT: Kinetic solubility of the compound in ph 7.4 PBS buffer measured after 24 hrs shaken by HPLC and UPLC system
- Assay type: physicochemical
- RECORDED CONDITIONS: read-out: Kinetic_solubility
ASSAY METRIC: solubility kinetic at 24 h (µM)

I. CCNC(=O)c1cnn(-c2ccc(-n3ccc(Cl)c(Cl)c3=O)cc2)c1C(F)(F)F
II. CCNCc1cnn(-c2ccc(-n3ccc(Cl)c(Cl)c3=O)cc2)c1C(F)(F)F
Query :: // pick min by solubility kinetic at 24 h: I , II I would appreciate it if you answered with the label of your choice.
Result :: II
(II: 0.2 µM, I: 144 µM)
